The origin of these recorded values is ChEMBL document CHEMBL1201862.

- System: CCRF-CEM
- test: NCI tumour cell line growth inhibition, 48 h
Calls of active or inactive are those of the source. No stated cut-off is given here; in the data, active = GI50 up to about 1.1 µM and inactive = higher.
measurement type: GI50

compound	GI50
CC(=O)N(N=O)c1ccc(N(N=O)C(C)=O)cc1	> 100 µM (inactive)

GI50 reported for this compound `N#CCN1CCCCCc2ccccc21` : > 100 µM (inactive)

Per the record, CC(=O)OCC1OC(N2C(S)=C(C#N)C(c3ccco3)C(C(C)=O)=C2c2ccccc2)C(OC(C)=O)C(OC(C)=O)C1OC(C)=O (configuration not stated) has GI50 of 28.3 µM (inactive)

response.value for CCCC(=O)CC(C)C(=O)C(=O)NC12CC3CC(CC(C3)C1)C2 (configuration not stated) (field: GI50) = > 100 µM (inactive)

Item: `CCOC(=O)/C=C/c1ccccn1` | GI50: > 100 µM (inactive)

According to the records, this compound `CCOC(=S)SC/C(=N\OC(C)(C)OC)c1ccccc1` displays GI50 of 18.1 µM (inactive)

// GI50 lookup, compound = O=c1oc2c(O)c(O)c(O)c3c(=O)oc4c(O)c(O)cc1c4c23 [FLAVELLAGIC ACID] , result: 29.2 µM (inactive)

The compound listed as `C=C(c1ccccc1)[C@@]1(O)CC[C@@H]1N(CC#N)Cc1ccccc1` shows GI50 equal to 32 µM (inactive)

Summary for this compound, `O=C(c1ccco1)N(C(=S)N1CCN(c2ccccn2)CC1)C1CCCCC1` : GI50 is > 100 µM (inactive)
